Molecular target: T1, Peptide-biotin
T1 construct: also called antigen
Assay: SPR Biacore 8K affinity ranking; antibody Fc-captured, Peptide-biotin analyte, 1:1 fit
Assay Metric: kon (M⁻¹ s⁻¹)
Respond with the bare value in M⁻¹ s⁻¹.

Completed entries (count: 2):
Need kon of humanized anti-TRPM4 antibody VH2 + VL3 (antibody, V domains shown, Full-length IgG) VH: QVQLQESGPGLVKPSQTLSLTCTVSGYSITSDYAWNWIRQHPGKGLEWMGYLSYSGVTSYNPSLKGRVTISRDTSKNQFSLKLSSVTAADTAVYYCARKGTYYRYEGSYWYFDVWGQGTTVTVSS VL: DIQMTQSPSSLSASVGDRVTITCHANQNIDVWLSWYQQKPGNAPKLLIYKTSNLHTGVPSRFSGSGSGTDFTFTISSLQPEDIATYYCQQGQSYPLTFGGGTKLEIKR , thanks. 203000

Look at this binder and give its reported kon. humanized anti-TRPM4 antibody clone A3 (VH1 + VL2) (antibody, V domains shown, Full-length IgG, IgG1 heavy chain; also called VH1 + VL2 (A3)) VH: QVQLQESGPGLVKPSQTLSLTCTVSGYSITSDYAWNWIRQHPGKGLEWIGYLSYSGVTSYNPSLKGRVTISVDTSKNQFSLKLSSVTAADTAVYYCARKGTYYRYEGSYWYFDVWGQGTTVTVSS VL: DIQMTQSPSSLSASVGDRVTITCHANQNIDVWLSWYQQKPGKAPKLLIYKTSNLHTGVPSRFSGSGSGTDFTLTISSLQPEDIATYYCQQGQSYPLTFGGGTKLEIKR 327000

Turning now to a further record.
Given anti-TRPM4 chimeric antibody clone A1 (VH + VL) (antibody, V domains shown, also called VH + VL (A1)) VH: QVQLQESGPGLVKPSQSLSLTCTVTGYSITSDYAWNWIRQFPGNKLQWMGYLSYSGVTSYNPSLKGRISITRDTSKNQFFLQLSSVTPEDTATYYCARKGTYYRYEGSYWYFDVWGAGTTVTVSS VL: DIQMNQSPSSLSASLGDTITITCHANQNIDVWLSWYQQKPGNVPKLLIYKTSNLHTGVPSRFSGSGSGTDFTLTISSLQPEDIATYYCQQGQSYPLTFGGGTKLEIK , state its recorded kon. 325000
